# Test system: SF-295 CNS
# PROTOCOL DETAILS: NCI-60 one-dose screen, 48 h
# CONDITION: 10 µM unless noted
Compounds without any hit were thinned out: in the full panel of roughly 83,000, 20% have a hit. Activity calls are given as the source filed them. How the source made its calls: active means growth percent below 10; inactive means the rest.
Labels: 1.0 = active, 0.0 = inactive

{"columns": ["COMPOUND", "GROUP"],
 "data": [
  ["C[C@@H](Oc1cc(-c2cnn(C3CC4(CCCNC4)C3)c2)cnc1N)c1c(Cl)ccc(F)c1Cl (stereo not given in full)", 0.0],
  ["COc1ccc(/C=N/OCC(O)CN2CCC(O)CC2)cc1OC1CCCC1 (stereo not given)", 0.0],
  ["CCCCOC(=O)C1OC(Oc2ccc3c(C)cc(=O)oc3c2)[C@@H](OC(C)=O)C(OC(C)=O)C1OC(C)=O (stereo not given in full)", 0.0],
  ["COc1cc(-c2nc(SC(C)C)nc(Nc3cccc(C)c3)c2C#N)cc(OC)c1OC", 0.0],
  ["COc1cccc(C2CC(=O)Nc3cc4c(cc32)OCO4)c1OC (stereo not given)", 0.0],
  ["CCOC(=O)c1c(-c2cc(OC)c(OC)c(OC)c2)csc1N", 0.0],
  ["COc1ccc(C2SC(C)C(=O)N2CCc2cccs2)cc1OC (stereo not given)", 0.0],
  ["CC1SC(c2cccc(Oc3ccccc3)c2)N(CCc2cccs2)C1=O (stereo not given)", 1.0],
  ["Cc1ccc2c(c1)c(Sc1ccc(C(=O)NO)cc1)c1n2CN(C)CC1", 0.0],
  ["COc1nc2c(cc1S(=O)(=O)c1ccccc1)CCc1c-2cnn1-c1cccc(Cl)c1", 0.0]
]}

---

# Tested on: CCRF-CEM leukemia
# PROTOCOL DETAILS: NCI-60 one-dose screen, 48 h (100 = growth as untreated, 0 = no growth, -100 = all killed)
# CONDITION: 10 µM unless noted
Compounds without any hit were thinned out: in the full panel of roughly 83,000, 20% have a hit.
Below is a list of entries, each paired with its recorded growth value.
MEASUREMENT LABEL: growth (%)

{"columns": ["COMPOUND", "TEST SYSTEM", "REPORTED"],
 "data": [
  ["COc1ccc(OC)c(C2C(C#N)=C(N)Oc3cc(O)ccc32)c1 (stereo not drawn)", "CCRF-CEM leukemia", 88.2],
  ["CC(=O)OC[C@H](O)[C@@]1(O)CC[C@H]2[C@@H]3CCC4=CC(=O)CC[C@]4(C)[C@H]3[C@@H](O)C[C@@]21C", "CCRF-CEM leukemia", 89.4],
  ["O=C(COc1cccc(/C=C2\\COc3ccccc3C2=O)c1)c1ccccc1", "CCRF-CEM leukemia", -32.7],
  ["COc1ccc(/C=C2\\CN(Cc3cn(CCCNc4ccnc5cc(Cl)ccc45)nn3)C/C(=C\\c3ccc(OC)c(OC)c3)C2=O)cc1OC", "CCRF-CEM leukemia", -15.2],
  ["N#CC1=C(N)Oc2cc(N)ccc2C1c1ccc(F)cc1 (stereo not drawn)", "CCRF-CEM leukemia", 66.6],
  ["C=CC[P+](c1ccccc1)(c1ccccc1)c1ccccc1", "CCRF-CEM leukemia", 59.7],
  ["O=c1nc(NO)[nH]c(=O)n1Cc1ccc(F)cc1", "CCRF-CEM leukemia", 105],
  ["O=C(Nc1ccccc1O)c1ccc(NS(=O)(=O)c2cccc3cccnc23)cc1", "CCRF-CEM leukemia", 33.1]
]}
